Where these numbers come from: patent US20200299384A1

target: T1, Human CD3 delta (CD3 delta) protein (His Tag) (human, UniProt P04234 22-105); test: ELISA, antigen coated on plate, HRP-labelled 2nd antibody; note: test concentration or dose not given here
T1 construct: extracellular domain; Bought protein; not shown: His tag
T1 sequence (P04234 22-105, stated change not applied): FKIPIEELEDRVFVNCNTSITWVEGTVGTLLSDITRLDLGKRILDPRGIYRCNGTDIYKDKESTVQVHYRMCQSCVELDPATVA
ELISA (A450) for assorted binders
parameter_measured: ELISA (A450)

INSERT INTO measurements (binder, test_result) VALUES
  ('WBP3311_2.383.47 (antibody, V domains shown, Mouse monoclonal antibody from hybridoma) VH: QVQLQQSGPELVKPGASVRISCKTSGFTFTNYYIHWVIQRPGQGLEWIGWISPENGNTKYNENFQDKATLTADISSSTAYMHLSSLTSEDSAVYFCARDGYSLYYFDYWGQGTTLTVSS VL: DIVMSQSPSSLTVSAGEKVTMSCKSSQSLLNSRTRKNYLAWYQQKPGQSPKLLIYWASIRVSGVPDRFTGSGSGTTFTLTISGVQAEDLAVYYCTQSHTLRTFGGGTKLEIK', 0.05),
  ('WBP3311_2.482.5 (antibody, V domains shown, Mouse monoclonal antibody from hybridoma; also called W3311-2.482.5) VH: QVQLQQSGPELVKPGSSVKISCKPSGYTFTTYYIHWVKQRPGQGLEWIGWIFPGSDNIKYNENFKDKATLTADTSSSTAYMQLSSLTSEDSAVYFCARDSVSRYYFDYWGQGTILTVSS VL: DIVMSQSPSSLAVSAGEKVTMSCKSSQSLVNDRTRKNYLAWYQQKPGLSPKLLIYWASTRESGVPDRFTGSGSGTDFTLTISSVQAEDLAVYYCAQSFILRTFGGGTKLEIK', 0.05),
  ('WBP3311_2.615.8 (antibody, V domains shown, Mouse monoclonal antibody from hybridoma; also called W3311-2.615.8) VH: QVQLQQSGPELVKPGTSMKISCKASGYSFTDFYTHWVRQRPGQGLEWIGWIFPGSDNIKYNEKFKGKATLTADTSSSTAYMQLSSLTSEDSAVYFCARDSVSVYYFDYWGQGTTLTVSS VL: DIVMSQSPSSLAVTAGEKVTMSCKSSQSLLNIRTRKNYLAWYQQKPGQSPKLLIYWASTRDSGVPDRFTGSGSGTDFTLTISSVQAEDLAVYYCTQSFILRTFGGGTKLEIK', 0.05);
